The reported numbers originate from ChEMBL document CHEMBL1127362.

For each of the compounds below, state its Relative activity.
Test system: DNA topoisomerase II (Bos taurus)
Assay: Relative potency to cause 90% of topoisomerase II-mediated cleavage of liner 8.4-kb YEPG DNA
Reply: number alone, nothing else.

// assay DNA topoisomerase II (Bos taurus), entry `COc1ccc(N)c(N2C(=O)c3ccccc3C2=O)c1` , Relative activity value = 0

For the compound `O=C1c2ccccc2C2=Nc3ccc([N+](=O)[O-])cc3CN12` , the measured Relative activity on DNA topoisomerase II (Bos taurus) was 0

Fill in: DNA topoisomerase II (Bos taurus) Relative activity for `O=C1c2ccccc2C2=Nc3ccncc3CN12` = 0.1

Record `Cc1cccc2c1nc1n2C(=O)c2ccccc2-1` has DNA topoisomerase II (Bos taurus) Relative activity equal to 0

Entry `Nc1ccc2nc3n(c2c1)C(=O)c1ccccc1-3` : Relative activity on DNA topoisomerase II (Bos taurus) = 0

Measured on DNA topoisomerase II (Bos taurus), `Cc1cccc(N)c1N1C(=O)c2ccccc2C1=O` has a documented Relative activity of 0

The compound `COc1ccc2nc3n(c2c1)C(=O)c1ccccc1-3` on DNA topoisomerase II (Bos taurus): Relative activity was 0

Reading of Relative activity for `O=C1c2ccccc2C2=Nc3ccccc3CN12` with DNA topoisomerase II (Bos taurus): 1

The value of Relative activity recorded for `Cc1cccc(N2C(=O)c3ccccc3C2=O)c1[N+](=O)[O-]` when tested on DNA topoisomerase II (Bos taurus) reads 0

Field Relative activity (DNA topoisomerase II (Bos taurus)), entry `O=C1c2ccccc2-c2nc3ccccc3n21` : 0

GET /values?item= `O=C1c2ccccc2-c2nc3ccc(O)cc3n21` &system= DNA topoisomerase II (Bos taurus) returns Relative activity: 0

Per the reported DNA topoisomerase II (Bos taurus) data, `O=C1c2ccccc2-c2nc3ccncc3n21` has Relative activity of 0

The reported Relative activity value, DNA topoisomerase II (Bos taurus), for `Cc1cccc2nc3n(c12)C(=O)c1ccccc1-3` reads 0
